measurement.target: T1, Ebola virus GP with a C-terminal polyhistidine tag (Sino Biologicals, Catalog #40442-V08B1) (Ebola virus, UniProt P87666 33-650)
T1 construct: also called EbolaGP.his; Ebola virus GP.his
test: SPR 37C, mAb captured
quantity.measured: pKd
Kindly note that pKd refers to -log10 of the concentration in mol/L and answer with the value alone.

Which measured pKd value corresponds to H1H17203P (antibody, V domains shown) VH: QVQLVESGGGVVQPGRSLRLSCAASGFTFNNYGMHWVRQAPGMGLEWVAVIWHDGSDKYYADSVKGRFTISRDNSKNTLYLQMNSLRAEDTAVYYCARNWNLFDYWGQGTLVTVSS VL: DIQMTQSPSSLSASVGDRITITCRASQSISTYLHWYQQKPGKAPKLLIYAASTLQSGVPSRFSGSGSGTDFTLTISSLQPEDFATYYCQQSFSTPPINFGQGTKLEIK ?
7.51

Which measured pKd value corresponds to H1H17214P (antibody, V domains shown) VH: EVQLVESGGGLVQPGGSLRLSCAASKFTFDTFAMSWVRQAPGKGLEWVSFISSSGGRTDYVDSVKGRFTISRDNSKNTLYLQMNSLRAEDTAVYYCAKERTIFGVLILGPDNYGMDVWGQGTTVTVSS VL: DIQMTQSPSSLSAFVGDRVTITCRASQSISTYLNWYQQKPGKAPKLLIYAASSLQSGVSSRFSGSGSGTDFTLTISSLQPEDFATYYCQQSYSAPPITFGQGTRLEIK ?
8.38

Data provenance: patent US20160215040A1
